# Test system: Hepatitis C virus
# testDescription: Antiviral activity against HCV genotype 1b infected in human HuH7 cells after 3 days by luciferase reporter gene assay
# Format: functional, organism-based, Hepacivirus hominis
# studyConditions: Huh-7, 72 h
pEC50: −log10 of the molar value.
pEC50 below 6 gives label 0; pEC50 at or above it gives label 1.

>>> df
                                 testsmiles  answerlabel
0  O=C(NC1CC1)c1c(NO)cc(-c2ccc(Cl)cc2)oc1=O      label 0
1  COc1ccccc1NC(=O)c1c(NCCO)cc(-c2cccc(Br)c2)oc1=O      label 0
2  O=C(Nc1cccc(C(F)(F)F)c1)c1c(NO)cc(-c2cccs2)oc1=O      label 0
3   Cc1ccccc1NC(=O)c1c(NO)cc(-c2cccs2)oc1=O      label 1
4  O=C(Nc1ccc(Br)cc1)c1c(NCCO)cc(-c2cccc(Br)c2)oc1=O      label 0
5  O=C(Nc1ccccc1)c1c(NCCO)cc(-c2cccc(Br)c2)oc1=O      label 0
6   O=C(NC1CC1)c1c(NO)cc(-c2ccc(F)cc2)oc1=O      label 0
7  COc1ccc(-c2cc(NO)c(C(=O)NC3CCCCC3)c(=O)o2)cc1      label 0

*Q* Textbook exercise: given the entry O=C(Nc1ccc(F)cc1)c1c(NO)cc(-c2cccs2)oc1=O , state whether its pEC50 is greater than or equal to 6.
*A* label 1

*Q* Textbook exercise: given the entry O=C(Nc1ccc(Cl)cc1)c1c(NCCO)cc(-c2ccc(Br)cc2)oc1=O , state whether its pEC50 is greater than or equal to 6.
*A* label 0
